Each record here notes measured IC50.
- Target or test system: Integrin alpha-V/beta-5 (Homo sapiens, UniProt P06756+P18084)
- Sequence (P06756 31-889 limits assumed): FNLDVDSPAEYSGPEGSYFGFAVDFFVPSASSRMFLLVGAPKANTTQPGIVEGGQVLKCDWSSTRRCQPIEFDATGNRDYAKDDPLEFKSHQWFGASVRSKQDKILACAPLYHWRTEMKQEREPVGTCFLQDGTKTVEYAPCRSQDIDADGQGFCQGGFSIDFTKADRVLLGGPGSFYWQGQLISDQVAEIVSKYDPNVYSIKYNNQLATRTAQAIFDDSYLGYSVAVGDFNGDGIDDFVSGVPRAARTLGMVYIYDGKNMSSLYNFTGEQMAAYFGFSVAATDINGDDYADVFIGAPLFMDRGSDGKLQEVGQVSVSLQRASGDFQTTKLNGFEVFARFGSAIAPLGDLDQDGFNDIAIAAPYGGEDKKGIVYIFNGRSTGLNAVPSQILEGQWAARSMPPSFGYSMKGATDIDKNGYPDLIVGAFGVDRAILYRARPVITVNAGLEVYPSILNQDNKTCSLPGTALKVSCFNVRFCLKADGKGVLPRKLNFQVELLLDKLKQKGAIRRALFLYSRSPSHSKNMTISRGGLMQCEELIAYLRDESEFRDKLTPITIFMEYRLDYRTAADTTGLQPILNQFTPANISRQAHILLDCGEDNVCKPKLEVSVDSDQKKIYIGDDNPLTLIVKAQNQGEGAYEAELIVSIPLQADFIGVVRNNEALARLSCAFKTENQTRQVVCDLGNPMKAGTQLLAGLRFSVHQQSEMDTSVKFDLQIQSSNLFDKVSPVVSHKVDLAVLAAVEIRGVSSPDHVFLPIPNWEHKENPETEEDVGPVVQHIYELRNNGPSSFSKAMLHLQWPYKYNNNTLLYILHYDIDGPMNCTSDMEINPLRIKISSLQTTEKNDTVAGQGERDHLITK
- Sequence (P06756 891-1048 limits assumed): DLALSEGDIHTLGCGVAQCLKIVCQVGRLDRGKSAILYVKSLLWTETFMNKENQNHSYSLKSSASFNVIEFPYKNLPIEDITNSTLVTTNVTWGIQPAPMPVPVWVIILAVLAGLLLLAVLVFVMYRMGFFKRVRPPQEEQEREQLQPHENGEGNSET
- Sequence (P18084 24-799 limits assumed): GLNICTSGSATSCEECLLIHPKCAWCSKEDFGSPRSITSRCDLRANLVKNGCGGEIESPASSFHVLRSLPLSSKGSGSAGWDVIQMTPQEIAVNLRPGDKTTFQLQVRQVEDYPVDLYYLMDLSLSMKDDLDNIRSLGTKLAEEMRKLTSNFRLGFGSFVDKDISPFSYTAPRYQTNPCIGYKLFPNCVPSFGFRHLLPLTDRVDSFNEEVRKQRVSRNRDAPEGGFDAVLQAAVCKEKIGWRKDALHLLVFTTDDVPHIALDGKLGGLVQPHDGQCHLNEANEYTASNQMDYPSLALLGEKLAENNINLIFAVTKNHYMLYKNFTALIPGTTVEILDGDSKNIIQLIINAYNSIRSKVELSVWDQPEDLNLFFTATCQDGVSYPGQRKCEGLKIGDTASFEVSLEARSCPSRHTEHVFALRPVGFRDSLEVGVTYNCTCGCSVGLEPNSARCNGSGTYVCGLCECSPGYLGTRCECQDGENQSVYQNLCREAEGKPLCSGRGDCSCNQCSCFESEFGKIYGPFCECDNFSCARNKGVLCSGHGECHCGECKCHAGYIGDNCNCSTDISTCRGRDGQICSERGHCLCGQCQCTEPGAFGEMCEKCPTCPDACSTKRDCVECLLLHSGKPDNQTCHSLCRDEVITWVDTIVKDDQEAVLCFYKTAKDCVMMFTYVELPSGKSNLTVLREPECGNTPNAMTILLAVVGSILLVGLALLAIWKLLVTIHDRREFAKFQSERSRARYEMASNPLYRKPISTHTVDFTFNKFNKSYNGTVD
- Method notes: Displacement of [125I]echistatin from AlphaV-beta-5 integrin receptor
Endpoint name: IC50

CC(C)[C@@H]1NC(=O)[C@@](Cc2ccccc2)(C(F)(F)F)NC(=O)[C@H](CC(=O)O)NC(=O)CNC(=O)[C@H](CCCN=C(N)N)NC1=O : 10 nM
CC(C)[C@@H]1NC(=O)[C@@H](Cc2ccccc2)NC(=O)[C@@](CC(=O)O)(C(F)(F)F)NC(=O)CNC(=O)[C@H](CCCN=C(N)N)NC1=O : > 1000 nM
CN1C(=O)[C@@H](Cc2ccccc2)NC(=O)[C@H](CC(=O)O)NC(=O)CNC(=O)[C@H](CCCN=C(N)N)NC(=O)[C@]1(Cc1ccccc1)C(F)(F)F : 93.9 nM
NC(N)=NCCC[C@@H]1NC(=O)[C@H](Cc2ccccc2)NC(=O)[C@@H](Cc2ccccc2)NC(=O)[C@H](CC(=O)O)NC(=O)CNC1=O : 15.7 nM
CC(C)[C@@H]1NC(=O)[C@@H](Cc2ccccc2)NC(=O)[C@](CC(=O)O)(C(F)(F)F)NC(=O)CNC(=O)[C@H](CCCN=C(N)N)NC1=O : > 1000 nM
CN1C(=O)[C@@H](Cc2ccccc2)NC(=O)[C@H](CC(=O)O)NC(=O)CNC(=O)[C@H](CCCN=C(N)N)NC(=O)[C@@H]1Cc1ccccc1 : 19.8 nM
